# TEST: soluble on expression in E. coli; label from the status in PepcDB or PDB records
MEASURED_QUANTITY: soluble on expression in E. coli

Known soluble on expression in E. coli results, listed for orientation:
{"SEQUENCE_DATA": "MGSDKIHHHHHHMTHQAATVHALNPATPEGLEVRLARTRAEVAAAQRIRYRVFYEEMGAKPTVAMQTLEQDFDDYDKHCDHLVVLADGDVVGTYRLIRRSAAQAVGRFYTAGEFDISPFLAVEGEILELGRSCVDARWRHRGTLQALWQGLAGYMVENDIRLLFGCGSLPGTDPEILAPQLAYLRDNHMAPPALRGRALDSAEKVDFAGIDVAWDARRVLASLPPLLKGYLRLGGVIGDGAVIDRPFNTTDVLVVVNAADIAGRYVKRFSA", "soluble on expression in E. coli": "not soluble"}
{"SEQUENCE_DATA": "MQLYYLGPKGTFSYLACRQYFSEKETTFQPKSNLFEVIKAVADDDTSIGVVPIENSIEGTINIVADALAQQDVFAHGEIRLDINFALYGNGTDSISDIKKVYSIAPAISQTTNYIHQHQFDYDYVDSTIQSLTKIENGVAAIAPLGSGEAYGFTPIDTHIEDYPHNVTRFLVIKNQQQFDQNATSLMFLITPMHDKPGLLASVLNTFALFNINLSWIESRPLKTQLGMYRFFVQADSAITTDIKKVIAILETLDFKVEMIGAFNLEHHHHHH", "soluble on expression in E. coli": "not soluble"}
{"SEQUENCE_DATA": "SLRVYIYEYAVATGDEEFLAEGRAMLESLLRAFAKSGYETLTVAHPSVGVRWADEVLRDETQALECADLTLVIAPESDGLLESKVREYSRETEVIGPTPRAIRVAADKRKTEDALRDARSFQLPTREADVMVSKPADGAGSEGVRIGRGELSRELIPGSHHSLLCVSDGETVDVLGINDQFVAFAGRELVYLGGRTPSDHRELTRIARDIAEEVVERIPGLVGLFGVDLVMKGGEPYLIEVNPRPTTPTVAAALEHPEAVVRSLLEGPTGKVLRYRREYVYVKRGAEALVPEKFEVVEDFHGLRVYRG", "soluble on expression in E. coli": "soluble"}
{"SEQUENCE_DATA": "MGSDKIHHHHHHMTQLANTKFSLNDFELRDGIYFPSDYEQLNNTQHKKTWDAIGKTYYGSQKIEKLADTSPIKQDYTLLTGTPGGTWNKFPLNKSVGSILEIGSGYGRAPLHLSKAKNLRCEKYYGIDISEPLLRRLIKVKQEYNFFPEAEFNLICTSAEILPLEDNSIDLVISNCVFMHIPDAQLRSLLADISRVLKPGGIFVFNHSFHNKSCPSHIIHNFVRKLNPFVRNPVYLKQYSSAEINEMLASAGIQTKCPQYIVEPTEEYAILPETIKGIPVPFAKAINRSLKPSDALKETLAYGFSAYSSQLD", "soluble on expression in E. coli": "not soluble"}
{"SEQUENCE_DATA": "MGSDKIHHHHHHMDRIIEKLDHGWWVVSHEQKLWLPKGELPYGEAANFDLVGQRALQIGEWQGEPVWLVQQQRRHDMGSVRQVIDLDVGLFQLAGRGVQLAEFYRSHKYCGYCGHEMYPSKTEWAMLCSHCRERYYPQIAPCIIVAIRRDDSILLAQHTRHRNGVHTVLAGFVEVGETLEQAVAREVMEESGIKVKNLRYVTSQPWPFPQSLMTAFMAEYDSGDIVIDPKELLEANWYRYDDLPLLPPPGTVARRLIEDTVAMCRAEYE", "soluble on expression in E. coli": "soluble"}

Now let's try a different one.
// query soluble on expression in E. coli value for entry MAHHHHHHMPCNCRQGTGTHDHLQDGFARGGMFGVGSPLNAQVDVDLLQLWNSRNSVSEAARIFDPAKGDNDQPICSDADPELLLLIPLKEVCRIRSVSILGTNDDFAPSQVKLFCNPTGVVGFDSVRRLQHQEEIQLAQVSADDRIAYRLNPAKFSSAGCMGMLFEHSFGDDETHILRIELFGESTGRPVYQQTATNVVYEAMANPTDHNVGEELKKTFTIF
soluble
